Subject Of Test: PI3K (p110α/p85α) (Homo sapiens, UniProt P42336)
Construct: purchased Carna Biosciences 07CBS-0402A
Sequence (P42336 whole entry): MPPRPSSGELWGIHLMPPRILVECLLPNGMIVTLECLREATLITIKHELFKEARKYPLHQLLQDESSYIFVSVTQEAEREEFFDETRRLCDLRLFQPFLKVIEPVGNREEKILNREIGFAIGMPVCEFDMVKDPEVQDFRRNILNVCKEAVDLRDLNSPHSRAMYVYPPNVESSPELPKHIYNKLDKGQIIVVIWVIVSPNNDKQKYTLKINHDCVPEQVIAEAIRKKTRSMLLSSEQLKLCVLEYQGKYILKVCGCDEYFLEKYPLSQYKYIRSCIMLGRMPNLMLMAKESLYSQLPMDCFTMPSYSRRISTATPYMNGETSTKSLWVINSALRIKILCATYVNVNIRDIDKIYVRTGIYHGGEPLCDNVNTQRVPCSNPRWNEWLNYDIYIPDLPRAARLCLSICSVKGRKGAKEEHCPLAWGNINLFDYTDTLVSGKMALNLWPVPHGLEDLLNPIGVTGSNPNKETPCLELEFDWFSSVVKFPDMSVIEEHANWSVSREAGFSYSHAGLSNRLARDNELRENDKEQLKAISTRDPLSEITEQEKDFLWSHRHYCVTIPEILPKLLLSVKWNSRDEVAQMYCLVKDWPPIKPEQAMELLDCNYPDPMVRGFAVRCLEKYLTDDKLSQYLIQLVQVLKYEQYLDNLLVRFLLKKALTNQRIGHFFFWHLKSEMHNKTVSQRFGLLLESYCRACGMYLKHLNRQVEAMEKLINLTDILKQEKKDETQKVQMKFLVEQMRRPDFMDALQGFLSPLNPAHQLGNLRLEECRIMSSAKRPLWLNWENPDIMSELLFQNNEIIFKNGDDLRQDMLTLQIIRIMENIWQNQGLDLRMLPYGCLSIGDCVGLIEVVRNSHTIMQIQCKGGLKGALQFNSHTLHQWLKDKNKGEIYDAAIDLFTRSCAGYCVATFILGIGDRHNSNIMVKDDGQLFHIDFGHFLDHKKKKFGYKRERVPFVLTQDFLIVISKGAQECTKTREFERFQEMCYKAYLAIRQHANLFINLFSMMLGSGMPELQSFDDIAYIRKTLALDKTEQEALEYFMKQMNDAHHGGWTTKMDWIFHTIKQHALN
Sequence (P27986 whole entry partner): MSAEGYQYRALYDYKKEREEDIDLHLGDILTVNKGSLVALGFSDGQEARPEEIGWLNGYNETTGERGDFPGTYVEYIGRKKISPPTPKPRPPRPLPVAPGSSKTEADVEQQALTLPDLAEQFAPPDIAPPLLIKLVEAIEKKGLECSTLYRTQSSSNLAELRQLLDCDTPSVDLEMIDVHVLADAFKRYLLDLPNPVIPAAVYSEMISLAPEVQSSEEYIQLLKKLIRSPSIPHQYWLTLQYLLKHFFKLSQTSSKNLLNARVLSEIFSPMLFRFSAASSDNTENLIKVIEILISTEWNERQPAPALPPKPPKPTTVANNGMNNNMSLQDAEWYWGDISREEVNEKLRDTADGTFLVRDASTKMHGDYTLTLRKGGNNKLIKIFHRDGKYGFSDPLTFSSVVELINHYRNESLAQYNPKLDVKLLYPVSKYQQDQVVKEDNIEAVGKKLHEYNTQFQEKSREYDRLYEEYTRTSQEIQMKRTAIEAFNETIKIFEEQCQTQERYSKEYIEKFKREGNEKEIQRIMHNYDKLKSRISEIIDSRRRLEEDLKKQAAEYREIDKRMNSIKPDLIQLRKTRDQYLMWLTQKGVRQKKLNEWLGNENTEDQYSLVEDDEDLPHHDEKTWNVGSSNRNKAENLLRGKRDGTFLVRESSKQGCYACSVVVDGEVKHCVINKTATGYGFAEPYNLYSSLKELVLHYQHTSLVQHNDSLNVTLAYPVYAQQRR
Method Notes: PI3K activity assay (ADP Hunter Plus)
Type: biochemical
Condition Summary: PI3Kα; quantitative results; read-out: PI3K α IC50
Observed Property: IC50 (nM)

{"Test Smiles": "c1coc(CN2CCc3nc4c(N5CCOCC5)nc(-c5cccc6[nH]ncc56)cn4c3C2)c1", "Display Unit": "nM", "IC50": 1780}

(P) COc1cccc(CNC(=O)N2CCc3nc4c(N5CCOCC5)nc(-c5cnc(N)nc5)cn4c3C2)c1
(Q) CCCNC(=O)N1CCc2nc3c(N4CCOCC4)nc(-c4cnc(N)nc4)cn3c2C1
query: Return label of the item with the larger IC50. Candidates: P , Q . To answer, give the label that identifies your chosen option.
result: Q

* * *

Subject Of Test: PI3K (p110α/p85α) (Homo sapiens, UniProt P42336)
Construct: purchased Carna Biosciences 07CBS-0402A
Method Notes: PI3K activity assay (ADP Hunter Plus)
Format: biochemical
Condition Summary: PI3Kα; quantitative results; read-out: PI3K α IC50
Observed Property: IC50 (nM)

Answered examples (6):
{"Test Smiles": "CCCNC(=O)N1CCc2nc3c(N4CCOCC4)nc(-c4cnc(N)nc4)c(Cl)n3c2C1", "IC50 [nM]": 148}
{"Test Smiles": "CC(C)C(=O)N1CCc2nc3c(N4CCOCC4)nc(-c4cnc(N)nc4)cn3c2C1", "IC50 [nM]": 550}
{"Test Smiles": "CCS(=O)(=O)N1CCc2nc3c(N4CCOCC4)nc(-c4cnc(N)nc4)cn3c2C1", "IC50 [nM]": 29}
{"Test Smiles": "Nc1ncc(-c2nc(N3CCOCC3)c3nc4c(n3c2Cl)CN(S(=O)(=O)c2ccccc2)CC4)cn1", "IC50 [nM]": 101}
{"Test Smiles": "CCOC(=O)N1CCc2nc3c(N4CCOCC4)nc(-c4cnc(OC)nc4)c(Cl)n3c2C1", "IC50 [nM]": 603}
{"Test Smiles": "CCOC(=O)N1CCc2nc3c(N4CCOCC4)nc(-c4cnc5[nH]ccc5c4)cn3c2C1", "IC50 [nM]": 1050}

(I) CS(=O)(=O)N1CCc2nc3c(N4CCOCC4)nc(-c4cnc(N)nc4)c(Cl)n3c2C1
(II) c1cc(-c2cn3c4c(nc3c(N3CCOCC3)n2)CCN(Cc2ccoc2)C4)c2cn[nH]c2c1
query: Record comparison, field IC50: mark the lower of I and II . Write the label of whichever entry you select.
result: I
(I: 9 nM, II: 708 nM)

(A) Nc1ncc(-c2cn3c4c(nc3c(N3CCOCC3)n2)CCN(Cc2ccnnc2)C4)cn1
(B) c1cc(-c2cn3c4c(nc3c(N3CCOCC3)n2)CCNC4)c2cn[nH]c2c1
(C) Nc1ncc(-c2cn3c4c(nc3c(N3CCOCC3)n2)CCN(CC2CCCCC2)C4)cn1
query: rank_up(items): orders items by reported IC50 in ascending numerical order. Field: ranking. Enter the labels in the order requested.
result: A, C, B
(A: 175 nM, C: 363 nM, B: 755 nM)

* * *

Subject Of Test: PI3K (p110α/p85α) (Homo sapiens)
Construct: purchased Carna Biosciences 07CBS-0402A
Method Notes: PI3K activity assay (ADP Hunter Plus)
Assay type: biochemical
Condition Summary: quantitative results; read-out: PI3K α IC50
Observed Property: IC50 (nM)

Some solved cases for reference:
{"Test Smiles": "CCS(=O)(=O)N1CCc2c(nc3c(N4CCOCC4)nc(-c4cnc(N)nc4)cn23)C1", "Subject Of Test": "PI3K (p110α/p85α) (Homo sapiens)", "Display Unit": "nM", "IC50": 22}
{"Test Smiles": "CS(=O)(=O)c1ccccc1CN1CCc2nc3c(N4CCOCC4)nc(-c4cnc(N)nc4)cn3c2C1", "Subject Of Test": "PI3K (p110α/p85α) (Homo sapiens)", "Display Unit": "nM", "IC50": 37}
{"Test Smiles": "CC(C)C(=O)N1CCc2c(nc3c(N4CCOCC4)nc(-c4cnc(N)nc4)cn23)C1", "Subject Of Test": "PI3K (p110α/p85α) (Homo sapiens)", "Display Unit": "nM", "IC50": 44}
{"Test Smiles": "CN1CCc2c(nc3c(N4CCOCC4)nc(-c4cnc(N)nc4)cn23)C1", "Subject Of Test": "PI3K (p110α/p85α) (Homo sapiens)", "Display Unit": "nM", "IC50": 88}

(P) Nc1ncc(-c2cn3c4c(nc3c(N3CCOCC3)n2)CCN(C(=O)Nc2cc(Cl)cc(Cl)c2)C4)cn1
(Q) N#CCCCS(=O)(=O)N1CCc2c(nc3c(N4CCOCC4)nc(-c4cnc(N)nc4)cn23)C1
(R) Nc1ncc(-c2cn3c4c(nc3c(N3CCOCC3)n2)CN(C(=O)NCc2ccccc2F)CC4)cn1
(S) CN(C)CCN1CCc2c(nc3c(N4CCOCC4)nc(-c4cnc(N)nc4)cn23)C1
query: Put the items in sequence by IC50, from largest down. Answer format: the labels, ordered as requested.
result: S, P, Q, R
(S: 178 nM, P: 90 nM, Q: 31 nM, R: 7 nM)

Just for reference, patent US20130029967A1 is where these values come from.
